experimental system: Melanocortin receptor 4 (Homo sapiens, UniProt P32245); further: in other assays of this panel Not Active means under 50% inhibition at 10 µM
Sequence (P32245 whole entry): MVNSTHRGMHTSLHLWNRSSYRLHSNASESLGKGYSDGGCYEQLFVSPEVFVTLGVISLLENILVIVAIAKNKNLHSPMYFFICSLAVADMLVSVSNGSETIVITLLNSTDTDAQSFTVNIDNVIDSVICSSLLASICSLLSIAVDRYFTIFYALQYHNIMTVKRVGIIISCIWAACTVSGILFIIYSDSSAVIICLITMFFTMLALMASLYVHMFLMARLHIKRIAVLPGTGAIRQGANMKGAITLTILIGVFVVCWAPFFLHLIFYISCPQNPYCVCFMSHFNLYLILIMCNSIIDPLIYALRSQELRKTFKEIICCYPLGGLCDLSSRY
Format: cell membranes, Membrane
condition context: hek293

| compound | experimental system | IC50 |
| --- | --- | --- |
| CCCCN1CCCCC1C(=O)Nc1c(C)cccc1C.Cl (stereo not drawn) [BUPIVACAINE HYDROCHLORIDE] | Melanocortin receptor 4 (Homo sapiens, UniProt P32245) | Not Active |
| CC(C)c1nc(CN(C)C(=O)N[C@H](C(=O)N[C@@H](Cc2ccccc2)C[C@H](O)[C@H](Cc2ccccc2)NC(=O)OCc2cncs2)C(C)C)cs1 [RITONAVIR] | Melanocortin receptor 4 (Homo sapiens, UniProt P32245) | Not Active |
| CC1(C)O[C@@H]2C[C@H]3[C@@H]4C[C@H](F)C5=CC(=O)C=C[C@]5(C)[C@H]4[C@@H](O)C[C@]3(C)[C@]2(C(=O)CO)O1 [FLUNISOLIDE] | Melanocortin receptor 4 (Homo sapiens, UniProt P32245) | Not Active |

---

experimental system: Cholecystokinin receptor type A (Homo sapiens, UniProt P32238); further: in other assays of this panel Not Active means under 50% inhibition at 10 µM
Sequence (P32238 whole entry): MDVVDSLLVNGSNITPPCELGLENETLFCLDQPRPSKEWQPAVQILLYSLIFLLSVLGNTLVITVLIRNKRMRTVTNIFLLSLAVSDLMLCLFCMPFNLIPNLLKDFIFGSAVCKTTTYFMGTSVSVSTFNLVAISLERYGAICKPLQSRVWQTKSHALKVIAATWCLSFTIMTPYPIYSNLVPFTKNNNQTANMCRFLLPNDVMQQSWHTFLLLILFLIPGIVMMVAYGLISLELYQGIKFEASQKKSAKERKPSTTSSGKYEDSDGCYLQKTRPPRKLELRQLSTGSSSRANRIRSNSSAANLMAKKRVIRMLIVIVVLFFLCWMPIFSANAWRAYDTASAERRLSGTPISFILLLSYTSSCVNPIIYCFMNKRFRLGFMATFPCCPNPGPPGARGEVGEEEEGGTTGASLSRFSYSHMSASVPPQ
Format: cell membranes, Membrane
condition context: 1321-n1
Where a SMILES comes first, the peptide text is derived from it. Bridges are numbered along the chain shown (N, C = ends). [ ]: non-standard residue; d: D form. The star is where a group is joined. Threoninol(2S,3R) = C[C@@H](O)[C@H](CO)N*
outcome measure: IC50

Consider the following illustrative entries.
| molecule | measurement |
| --- | --- |
| Nc1c(CC(=O)O)cccc1C(=O)c1ccc(Br)cc1 [BROMFENAC] | Not Active |
| O=C(C1CCCCC1)N1CC(=O)N2CCc3ccccc3C2C1 (stereo unspecified) [PRAZIQUANTEL] | Not Active |
| COc1cccc2c1C(=O)c1c(O)c3c(c(O)c1C2=O)C[C@@](O)(C(=O)CO)C[C@@H]3O[C@H]1C[C@H](N)[C@H](O)[C@H](C)O1 [DOXORUBICIN] | Not Active |
| CC(C(=O)O)c1cccc(C(=O)c2ccccc2)c1 (stereo unspecified) [KETOPROFEN] | Not Active |
| CC(C)NCC(O)COc1cccc2ccccc12 (stereo unspecified) [PROPRANOLOL] | Not Active |

List reported IC50 for each of these molecules:
1. C[C@@H](O)[C@H](CO)NC(=O)[C@@H]1CSSC[C@H](NC(=O)[C@H](N)Cc2ccccc2)C(=O)N[C@@H](Cc2ccccc2)C(=O)N[C@H](Cc2c[nH]c3ccccc23)C(=O)N[C@@H](CCCCN)C(=O)N[C@@H]([C@@H](C)O)C(=O)N1 (H-[dF]CF[dW]KTC-{Threoninol(2S,3R)}; disulfide 2-7)
2. C#C[C@]1(O)CC[C@H]2[C@@H]3CCc4cc(OC)ccc4[C@H]3CC[C@@]21C [MESTRANOL]
3. CC1(C)O[C@@H]2C[C@H]3[C@@H]4C[C@H](F)C5=CC(=O)C=C[C@]5(C)[C@@]4(F)[C@@H](O)C[C@]3(C)[C@]2(C(=O)CO)O1 [FLUOCINOLONE ACETONIDE]
4. C[C@H]1C[C@H]2[C@@H]3CCC4=CC(=O)C=C[C@]4(C)[C@@]3(Cl)[C@@H](O)C[C@]2(C)[C@@]1(O)C(=O)CO [BECLOMETHASONE]
5. CC(=O)Nc1c(I)c(NC(C)=O)c(I)c(C(=O)O)c1I [DIATRIZOIC ACID]

// result
1: Not Active; 2: Not Active; 3: Not Active; 4: Not Active; 5: Not Active
